# Protocol Text: qHTS assay to identify small molecule antagonists of the retinoic acid receptor (RAR) signaling pathway (AID 1159552; also: nearly all actives have a fitted effect of over 50% in size; also: potency is read from the fitted curve at half-maximal effect)
# Conditions Used: C3RL4 RARE luciferase reporter, retinol-stimulated, 6 h; series mostly up to 92.4 µM
Inconclusive results are not listed. Calls of active or inactive are those of the source. Calls follow the shape of the dose curve; as a rule, active = well fitted inhibition curve with a large enough effect in the repeat runs; inconclusive = weak or mixed curves, or effect the other way; inactive = no such curve, though single readings can be large or run the other way.
Experimental Readout: Potency

[[record]]
molecule = "CN(C)c1ccc(N=O)cc1"
observed_measurement = "24.4 µM (active)"

[[record]]
molecule = "C=C(C)C(=O)OCCCCOC(=O)C(=C)C"
observed_measurement = "inactive"

[[record]]
molecule = "N#CC(C#N)=C(C#N)C#N"
observed_measurement = "inactive"

[[record]]
molecule = "Nc1ccccc1C(=O)OCC(O)CO (stereo not given)"
observed_measurement = "inactive"

[[record]]
molecule = "CC(C)(C)NCC(O)c1cc(Cl)c(N)c(C(F)(F)F)c1 (stereo not given)"
observed_measurement = "inactive"

[[record]]
molecule = "SCc1ccccc1"
observed_measurement = "inactive"

[[record]]
molecule = "CCC(C)(C)c1ccc(O)c(C(C)(C)CC)c1"
observed_measurement = "24.3 µM (active)"

[[record]]
molecule = "CC(Oc1cccc(Cl)c1)C(=O)O (stereo not given)"
observed_measurement = "inactive"

[[record]]
molecule = "O=C(O)C(F)(F)C(F)(F)C(F)(F)C(F)(F)C(F)(F)F"
observed_measurement = "inactive"

[[record]]
molecule = "CC(C)c1ccc(NC(=O)N(C)C)cc1"
observed_measurement = "inactive"

[[record]]
molecule = "NNCCO"
observed_measurement = "inactive"

[[record]]
molecule = "COC1=CC(=O)O[C@@H](/C=C/c2ccc3c(c2)OCO3)C1"
observed_measurement = "8.27 µM (active)"

[[record]]
molecule = "CCOP(=S)(S)OCC"
observed_measurement = "inactive"

[[record]]
molecule = "COC(=O)Cc1ccccc1"
observed_measurement = "inactive"

[[record]]
molecule = "CCCCCCCCP(=O)(O)O"
observed_measurement = "inactive"

